- System: NUGC
- PROTOCOL_NOTES: Cytotoxicity against human NUGC cells
- Assay type: functional, cell-based
Numbered stars: 1 amine (or outer) side, 2 acyl side, 3 side chain; on linkers, the order of the positions; unused ones are H or OH. Bridge positions count the residues as written; N and C are the ends. Square brackets hold non-standard residues; d marks the D form. Peptide text beside a SMILES is read from it. I, II: the chains in the order shown. Actinocin(1to9) = Cc1c2oc3c(C)ccc(C(=O)[*:2])c3nc-2c(C(=O)[*:1])c(N)c1=O; NMeV = CN[C@H](C(=O)O)C(C)C; Sar = CNCC(=O)O
Label Yes when IC50 is strictly below 7 µg/mL; otherwise label No.

Example cases with answers are listed next.
Cc1c2oc3c(C)ccc(C(=O)N[C@@H]4C(=O)N[C@H](C(C)C)C(=O)N5CCC[C@H]5C(=O)N(C)CC(=O)N(C)[C@@H](C(C)C)C(=O)O[C@@H]4C)c3nc-2c(C(=O)N[C@@H]2C(=O)N[C@H](C(C)C)C(=O)N3CCC[C@H]3C(=O)N(C)CC(=O)N(C)[C@@H](C(C)C)C(=O)O[C@@H]2C)c(N)c1=O [DACTINOMYCIN] (I: T[dV]P[Sar][NMeV] / II: T[dV]P[Sar][NMeV]; ester I:1-I:C, II:1-II:C; linker I:N-II:N via Actinocin(1to9)) : Yes
CO[C@H](c1ccccc1)[C@H](O)[C@H]1CC=CC(=O)O1 [6R,7R,8R-8-METHOXYGONIODIOL] : No
CC(=O)O[C@H](c1ccccc1)[C@H](O)[C@H]1CC=CC(=O)O1 : Yes
O=C1C=CC[C@H]([C@@H](O)[C@H](Cl)c2ccccc2)O1 [6R,7R,8R-8-CHLOROGONIODIOL] : No
CC(=O)O[C@H]([C@H](O)c1ccccc1)[C@H]1CC=CC(=O)O1 : Yes

Query block: Is 7 µg/mL strictly greater than the compound's reported IC50? compound: O=C1C=CC[C@H]([C@@H]2O[C@H]2c2ccccc2)O1 [GONIOTHALAMIN EPOXIDE]
Result block: No
